- Test system: Klebsiella pneumoniae
- TEST_DETAILS: Antimicrobial activity against Klebsiella pneumoniae isolate Kp5A expressing beta-lactamase OXA-48 and SHV-5 by Etest method
- Assay type: functional
RESULT_TYPE: MIC (µg/mL)

MOL_SMILES | OUTPUT_UNIT | INEQUALITY_SIGN | RESULT_VALUE
CC1(C)S[C@@H]2[C@H](NC(=O)[C@H](C(=O)O)c3ccsc3)C(=O)N2[C@H]1C(=O)O | µg/mL | > | 512
CO[C@@]1(NC(=O)Cc2cccs2)C(=O)N2C(C(=O)O)=C(COC(N)=O)CS[C@@H]21 | µg/mL | = | 128
CO/N=C(\C(=O)N[C@@H]1C(=O)N2C(C(=O)O)=C(COC(C)=O)CS[C@H]12)c1csc(N)n1 | µg/mL | = | 64
CCN1CCN(C(=O)N[C@@H](C(=O)N[C@@H]2C(=O)N3[C@@H]2SC(C)(C)[C@@H]3C(=O)O)c2ccccc2)C(=O)C1=O | µg/mL | > | 512

---

- System: Klebsiella pneumoniae
- TEST_DETAILS: Antimicrobial activity against Klebsiella pneumoniae isolate Kp5A expressing beta-lactamase OXA-48 and SHV-5 by Etest method
- Type: functional
Items are presented alongside their recorded MIC.
RESULT_TYPE: MIC

MOLECULE | RESULT_VALUE
C[C@@H](O)[C@H]1C(=O)N2C(C(=O)O)=C(S[C@@H]3CN[C@H](C(=O)N(C)C)C3)[C@H](C)[C@H]12 | > 32 µg/mL
CC(C)(O/N=C(\C(=O)N[C@@H]1C(=O)N2C(C(=O)[O-])=C(C[n+]3ccccc3)CS[C@H]12)c1csc(N)n1)C(=O)O | 512 µg/mL
CC1(C)S[C@@H]2[C@H](NC(=O)[C@H](N)c3ccc(O)cc3)C(=O)N2[C@H]1C(=O)O | > 512 µg/mL
C[C@@H](O)[C@H]1C(=O)N2C(C(=O)O)=C(SCCNC=N)C[C@H]12 [IMIPENEM ANHYDROUS] | > 32 µg/mL
C[C@@H](O)[C@H]1C(=O)N2C(C(=O)O)=C(S[C@@H]3CN[C@H](C(=O)Nc4cccc(C(=O)O)c4)C3)[C@H](C)[C@H]12 | > 32 µg/mL
CC(=O)OCC1=C(C(=O)O)N2C(=O)[C@@H](NC(=O)Cc3cccs3)[C@H]2SC1 | > 512 µg/mL

---

- Test system: Klebsiella pneumoniae
- TEST_DETAILS: Antimicrobial activity against Klebsiella pneumoniae isolate KpL expressing beta-lactamase OXA-48 by Etest method
- Assay type: functional
MIC vs 0.8 µg/mL: less than gives condition met; not less than gives condition not met.

MOLECULE | LABEL_VALUE
CCN1CCN(C(=O)N[C@@H](C(=O)N[C@@H]2C(=O)N3[C@@H]2SC(C)(C)[C@@H]3C(=O)O)c2ccccc2)C(=O)C1=O [PIPERACILLIN] | condition not met
CO/N=C(\C(=O)N[C@@H]1C(=O)N2C(C(=O)O)=C(COC(C)=O)CS[C@H]12)c1csc(N)n1 [CEFOTAXIME] | condition not met
C[C@H]1[C@H](NC(=O)/C(=N\OC(C)(C)C(=O)O)c2csc(N)n2)C(=O)N1S(=O)(=O)O [AZTREONAM] | condition met
C[C@@H](O)[C@H]1C(=O)N2C(C(=O)O)=C(S[C@@H]3CN[C@H](C(=O)Nc4cccc(C(=O)O)c4)C3)[C@H](C)[C@H]12 | condition not met
CO[C@@]1(NC(=O)Cc2cccs2)C(=O)N2C(C(=O)O)=C(COC(N)=O)CS[C@@H]21 [CEFOXITIN] | condition not met
CC(=O)OCC1=C(C(=O)O)N2C(=O)[C@@H](NC(=O)Cc3cccs3)[C@H]2SC1 [CEPHALOTHIN] | condition not met
CC1(C)S[C@@H]2[C@H](NC(=O)[C@H](N)c3ccc(O)cc3)C(=O)N2[C@H]1C(=O)O [AMOXICILLIN] | condition not met
C[C@@H](O)[C@H]1C(=O)N2C(C(=O)O)=C(SCCNC=N)C[C@H]12 [IMIPENEM ANHYDROUS] | condition not met
CC1(C)S[C@@H]2[C@H](NC(=O)[C@H](C(=O)O)c3ccsc3)C(=O)N2[C@H]1C(=O)O [TICARCILLIN] | condition not met
CC(C)(O/N=C(\C(=O)N[C@@H]1C(=O)N2C(C(=O)[O-])=C(C[n+]3ccccc3)CS[C@H]12)c1csc(N)n1)C(=O)O [CEFTAZIDIME] | condition met
CO/N=C(\C(=O)N[C@@H]1C(=O)N2C(C(=O)[O-])=C(C[N+]3(C)CCCC3)CS[C@H]12)c1csc(N)n1 | condition met

---

Quick list: MIC per entry.
- System: Escherichia coli
- TEST_DETAILS: Antimicrobial activity against Escherichia coli isolate TOP10 harboring pBIC containing beta-lactamase OXA-48 located within transposon Tn1999.2 by Etest method
- Type: functional

MOL_SMILES | OUTPUT_UNIT | MIC
C[C@@H](O)[C@H]1C(=O)N2C(C(=O)O)=C(S[C@@H]3CN[C@H](C(=O)Nc4cccc(C(=O)O)c4)C3)[C@H](C)[C@H]12 | µg/mL | 0.5
CO[C@@]1(NC(=O)Cc2cccs2)C(=O)N2C(C(=O)O)=C(COC(N)=O)CS[C@@H]21 | µg/mL | 2
C[C@@H](O)[C@H]1C(=O)N2C(C(=O)O)=C(S[C@@H]3CN[C@H](C(=O)N(C)C)C3)[C@H](C)[C@H]12 | µg/mL | 0.5
CC(=O)OCC1=C(C(=O)O)N2C(=O)[C@@H](NC(=O)Cc3cccs3)[C@H]2SC1 | µg/mL | 16

---

- Test system: Enterobacter cloacae
- TEST_DETAILS: Antimicrobial activity against Enterobacter cloacae isolate 2 expressing beta-lactamase OXA-48 and SHV-5 by Etest method
- Assay type: functional
RESULT_TYPE: MIC (µg/mL)

MOL_SMILES | RESULT_TYPE | INEQUALITY_SIGN | RESULT_VALUE
C[C@@H](O)[C@H]1C(=O)N2C(C(=O)O)=C(S[C@@H]3CN[C@H](C(=O)Nc4cccc(C(=O)O)c4)C3)[C@H](C)[C@H]12 | MIC | = | 0.75
CO/N=C(\C(=O)N[C@@H]1C(=O)N2C(C(=O)O)=C(COC(C)=O)CS[C@H]12)c1csc(N)n1 | MIC | = | 512
CCN1CCN(C(=O)N[C@@H](C(=O)N[C@@H]2C(=O)N3[C@@H]2SC(C)(C)[C@@H]3C(=O)O)c2ccccc2)C(=O)C1=O | MIC | > | 512

---

- Test system: Escherichia coli
- TEST_DETAILS: Antimicrobial activity against Escherichia coli isolate TOP10 harboring pBIC containing beta-lactamase OXA-48 located within transposon Tn1999.2 by Etest method
- Type: functional
The reader will find reported MIC values listed item by item below.
RESULT_TYPE: MIC

COMPOUND | RESULT_VALUE
CCN1CCN(C(=O)N[C@@H](C(=O)N[C@@H]2C(=O)N3[C@@H]2SC(C)(C)[C@@H]3C(=O)O)c2ccccc2)C(=O)C1=O [PIPERACILLIN] | > 512 µg/mL
CO/N=C(\C(=O)N[C@@H]1C(=O)N2C(C(=O)O)=C(COC(C)=O)CS[C@H]12)c1csc(N)n1 [CEFOTAXIME] | 0.5 µg/mL
CC(C)(O/N=C(\C(=O)N[C@@H]1C(=O)N2C(C(=O)[O-])=C(C[n+]3ccccc3)CS[C@H]12)c1csc(N)n1)C(=O)O [CEFTAZIDIME] | 0.12 µg/mL
C[C@@H](O)[C@H]1C(=O)N2C(C(=O)O)=C(SCCNC=N)C[C@H]12 [IMIPENEM ANHYDROUS] | 0.5 µg/mL
CC1(C)S[C@@H]2[C@H](NC(=O)[C@H](C(=O)O)c3ccsc3)C(=O)N2[C@H]1C(=O)O [TICARCILLIN] | > 512 µg/mL
CO/N=C(\C(=O)N[C@@H]1C(=O)N2C(C(=O)[O-])=C(C[N+]3(C)CCCC3)CS[C@H]12)c1csc(N)n1 | 0.5 µg/mL
CC1(C)S[C@@H]2[C@H](NC(=O)[C@H](N)c3ccc(O)cc3)C(=O)N2[C@H]1C(=O)O [AMOXICILLIN] | > 512 µg/mL

---

- Test system: Klebsiella pneumoniae
- TEST_DETAILS: Antimicrobial activity against Klebsiella pneumoniae isolate KpBEL expressing beta-lactamase OXA-48 by Etest method
- Assay type: functional
Property: MIC; scope: individual compounds

COMPOUND | OUTPUT_UNIT | INEQUALITY_SIGN | MIC
C[C@H]1[C@H](NC(=O)/C(=N\OC(C)(C)C(=O)O)c2csc(N)n2)C(=O)N1S(=O)(=O)O | µg/mL | = | 0.06
C[C@@H](O)[C@H]1C(=O)N2C(C(=O)O)=C(SCCNC=N)C[C@H]12 [IMIPENEM ANHYDROUS] | µg/mL | = | 0.75
CC1(C)S[C@@H]2[C@H](NC(=O)[C@H](C(=O)O)c3ccsc3)C(=O)N2[C@H]1C(=O)O | µg/mL | > | 256
CO/N=C(\C(=O)N[C@@H]1C(=O)N2C(C(=O)O)=C(COC(C)=O)CS[C@H]12)c1csc(N)n1 | µg/mL | = | 0.12
CC(C)(O/N=C(\C(=O)N[C@@H]1C(=O)N2C(C(=O)[O-])=C(C[n+]3ccccc3)CS[C@H]12)c1csc(N)n1)C(=O)O | µg/mL | = | 1
C[C@@H](O)[C@H]1C(=O)N2C(C(=O)O)=C(S[C@@H]3CN[C@H](C(=O)N(C)C)C3)[C@H](C)[C@H]12 | µg/mL | = | 0.5
CO[C@@]1(NC(=O)Cc2cccs2)C(=O)N2C(C(=O)O)=C(COC(N)=O)CS[C@@H]21 | µg/mL | = | 2
CCN1CCN(C(=O)N[C@@H](C(=O)N[C@@H]2C(=O)N3[C@@H]2SC(C)(C)[C@@H]3C(=O)O)c2ccccc2)C(=O)C1=O | µg/mL | > | 256

Data origin: ChEMBL document CHEMBL1255404
